Give measured koff for each item. Keep answers brief.
# target_or_test_system: T1, carcinoembryonic antigen (CEA) (UniProt P06731 35-685, limits assumed, biotinylated (labelled form); unlabelled CEA (Calbiochem) used as competitor in the off-rate assays)
# T1 construct: also called biotinylated-CEA; bio-CEA
# T1 sequence (looked up): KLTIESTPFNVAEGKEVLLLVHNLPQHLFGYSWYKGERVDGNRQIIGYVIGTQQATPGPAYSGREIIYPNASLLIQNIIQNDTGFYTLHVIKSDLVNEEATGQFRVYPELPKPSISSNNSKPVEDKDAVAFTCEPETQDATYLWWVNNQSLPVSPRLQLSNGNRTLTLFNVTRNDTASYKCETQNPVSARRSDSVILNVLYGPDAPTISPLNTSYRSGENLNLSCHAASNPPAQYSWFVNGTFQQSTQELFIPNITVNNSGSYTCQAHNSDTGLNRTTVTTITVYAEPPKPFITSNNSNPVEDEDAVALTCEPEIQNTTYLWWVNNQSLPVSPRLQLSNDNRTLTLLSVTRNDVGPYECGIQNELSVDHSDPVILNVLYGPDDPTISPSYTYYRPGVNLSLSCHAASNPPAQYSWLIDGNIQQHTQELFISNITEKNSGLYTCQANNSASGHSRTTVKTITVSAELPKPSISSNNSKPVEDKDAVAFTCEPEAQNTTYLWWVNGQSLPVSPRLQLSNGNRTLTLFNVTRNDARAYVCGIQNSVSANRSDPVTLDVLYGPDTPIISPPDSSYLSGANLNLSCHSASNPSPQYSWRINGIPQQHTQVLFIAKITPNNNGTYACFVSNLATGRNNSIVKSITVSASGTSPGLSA
# assay_method_text: off-rate analysis on the yeast surface at 37 C
Write down the numeric answer in s⁻¹ and omit the unit.

Input line: # query: koff of entry hMFE+T98A (scFv) PYDVPDYALQASGGGGSGGGGSGGGGSASQVKLEQSGAEVVKPGASVKLSCKASGFNIKDSYMHWLRQGPGQRLEWIGWIDPENGDTEYAPKFQGKATFTTDTSANTAYLGLSSLRPEDTAVYYCNEGTPAGPYYFDYWGQGTLVTVSSGGGGSGGGGSGGGGSENVLTQSPSSMSASVGDRVNIACSASSSVSYMHWFQQKPGKSPKLWIYSTSNLASGVPSRFSGSGSGTDYSLTISSMQPEDAATYYCQQRSSYPLTFGGGTKLEIKAAAGSEQKLISEEDL
Output line: 0.0006

Input line: Using the record for sm10B (scFv) PYDVPDYALQASGGGGSGGGGSGGGGSASQVKLEQSGAEVVKPGASVKLSCKASGFNIKDSYMHWLRQGPGQRLEWIGWIDPENGDTEYAPKFQGKATFTTDTSANTAYLGLSSLRPEDTAVYYCNEGTPTGPYYFDYWGQGTLVTVSSGGGGSGGGGSGGGGSENVLTQSPSSMSASVGDRVTIACSASSSVPYMHWFQQKPGKSPKLLIYLTSNLASGVPSRFSGSGSGTDYSLTISSVQPEDAATYYCQQRSSYPLTFGGGTKLEIKAAAGSEQKLISEEDL , report its koff.
Output line: 8.2e-06

Input line: koff lookup needed for sm10B+T98A (scFv) PYDVPDYALQASGGGGSGGGGSGGGGSASQVKLEQSGAEVVKPGASVKLSCKASGFNIKDSYMHWLRQGPGQRLEWIGWIDPENGDTEYAPKFQGKATFTTDTSANTAYLGLSSLRPEDTAVYYCNEGTPAGPYYFDYWGQGTLVTVSSGGGGSGGGGSGGGGSENVLTQSPSSMSASVGDRVTIACSASSSVPYMHWFQQKPGKSPKLLIYLTSNLASGVPSRFSGSGSGTDYSLTISSVQPEDAATYYCQQRSSYPLTFGGGTKLEIKAAAGSEQKLISEEDL , thanks.
Output line: 6.8e-06
